tested on: MS2 coat protein; experiment: apparent KD of MS2 coat protein; designed switch direction (-1 OFF switch, 1 ON switch): -1; higher = weaker reporter binding; details: Eterna round: R95; input ligand: none
We'd kindly ask you to apply these apparent KD of MS2 coat protein classes: interval 1: < 70 nM; interval 2: ≥ 70 nM and < 90 nM; interval 3: ≥ 90 nM

Examples from the recorded data:
Item sequence	Assigned class
AAGAAACAUGAGGAUCACCCAUGUGAGGAUAUGACCAAGAAAAGAAAAGAAAGAAGAGUCAGAAGGCACAAAGG [salish99-ex1_r3_066] (puzzle: Exclusion 1)	interval 3
GGUCGGCGAGGAUAUACAUGAGGAUCACCCAUGUGAUAGAUUGCACGCGUACGUGUAUGUAGAAGGCGCUGACG [JL-ex3-3.30 salish99 mod] (puzzle: Exclusion 3)	interval 1
AGUACUAACACGAAAGUGUUAGUUCAAUAAGCUUGUGAAACAUGAGGAUCACCCAUGUCCUCAUAAGCUCGUCUUAU [salish99_TOv2_r3_040] (puzzle: Sensor v3, turn-off variant 2)	interval 1

Continue with the next sequence.
## Task Category of UAUAAAACAUAGGAUAUCGAAUAUAUCAUUUAACGAGAAGGAUGAACAUGAGGAUCACCCAUGUGGUAUCAUGG [Mat - Exclusion 6 - JL Mod - D8] (puzzle: Exclusion 6) :
## Result interval 3

###

system: MS2 coat protein; assay: apparent KD of MS2 coat protein; designed switch direction (-1 OFF switch, 1 ON switch): -1; higher = weaker reporter binding; settings: input ligand: none
Property label: apparent KD of MS2 coat protein (nM)
Number in nM, nothing else.

Item sequence	Measurement unit	Observed measurement
UAAACAAGCUAAAGAUCCCACAUGAGGAUCACCCAUGUGCUCGUCUUGUAACGUACUGUGACGAAAGUCACGGUACG [JL TOV1 3.11] (Eterna round: R97, puzzle: Sensor, turn-off variant 1)	nM	22.8
GAGUGAGCGUGAGGAAUAUACAUGAGGAUCACCCAUGUUUGCUAAUAUAUUGCUCGUCUUAUAACAACAAUUAACUG [Mod-hoo-honey#ab] (Eterna round: R97, puzzle: Sensor, turn-off variant 1)	nM	13.7

Shift focus to the following entry.
## Task Consider the sequence CCCUUGUGAGGAUAUAGUAGUUGCACAUCGAUAGAGUAACUCUAGAAGGCACAUGAGGAUCACCCAUGUACGAA [Eternabot (L1) Solution 56] (Eterna round: R97, puzzle: Exclusion 4) and give its recorded apparent KD of MS2 coat protein.
## Result 119

###

system: MS2 coat protein; assay: apparent KD of MS2 coat protein, switch OFF state (with FMN for OFF switches, without FMN for ON switches); designed switch direction (-1 OFF switch, 1 ON switch): -1; higher = weaker reporter binding; details: FMN input: 0 or 200 uM; Eterna round: R93 (includes R88 designs)
Property label: apparent KD of MS2 coat protein (nM)
All answers are understood in nM, so give the number only.

## Task Look up and state reported apparent KD of MS2 coat protein for GAAAGUGGAGGAUAUACAUGAGGAUCACCCAUGUGUAAAAAUAAAAACACAAAAGAAAGUAGAAGGCCACAAAG [Mat - Exclusion 3 - Mayanna mod - D116]
## Result 49.2

###

Attribute: apparent KD of MS2 coat protein
tested on: MS2 coat protein; test: apparent KD of MS2 coat protein, switch ON state; designed switch direction (-1 OFF switch, 1 ON switch): -1; higher = weaker reporter binding; conditions: FMN input: 0 or 200 uM; Eterna round: R93 (includes R88 designs)
Dear colleague, please return just the value in µM, with no unit written.

Use these answered entries as a reference point.
> print(dat)
                              item.sequence   target.of.assay  observed.measurement
1  UGUUGGCGAGGAUAUACAUGAGGAUCACCCAUGUGAGAGAAAAAAGUGAGAAAGAAAAGUAGAAGGCGCUGACU [salish99-ex3-08]  MS2 coat protein                0.0427
2  AAAACACAUGAGGAUCACCCAUGUCAGGAUAUACGAGAAAGAAAAGAAAAGAAAAGAAGUAGAAGGGACUAGAA [Exclusion1 Malc#3]  MS2 coat protein                0.0157
3  AAAAAACAUGAGGAUCACCCAUGUUAGGAUAUUCCUAAAAAAAAAAAAAAAAAAAAUGGAAGAAGGAACAAAAA [excalibur10]  MS2 coat protein                0.0235
4  CUCAUGUAAGGAUAUAUAUGAAAUGAAGUGAAAGAAAAGAAAUAGAAGGUACAUGAGGAUCACCCAUGUUAGAA [EteRNA is fun!]  MS2 coat protein                0.0592

## Task Item AAAAAGCAAGGAUAUACAUGAGGAUCACCCAUGUGAAAAAAAACAAUAAGAAGAACAAGUAGAAGGUGCAAAAA [Mod of Ex3 Tesla 1 - Jieux - Exclusion 3] : provide apparent KD of MS2 coat protein
## Result 0.0195

## Task Look up and report measured apparent KD of MS2 coat protein for this entry: AAACCACAUGAGGAUCACCCAUGUCAGGAUAUGAACGAAAUAAAAUAAAAAUAAAAGUUCAGAAGGGACAAAAA [Mat - Exclusion 1 - Eli mod - D16]
## Result 0.0374
